The reported measurements were obtained from patent US20230064983A1.

- SYSTEM_TESTED: Bub1 (Homo sapiens, UniProt O43683)
- Construct: catalytic domain of human Bub1 (amino acids 704-1085); His6 (N); made in house; host or cells: insect cells (Hi5)
- Sequence (O43683 704-1085): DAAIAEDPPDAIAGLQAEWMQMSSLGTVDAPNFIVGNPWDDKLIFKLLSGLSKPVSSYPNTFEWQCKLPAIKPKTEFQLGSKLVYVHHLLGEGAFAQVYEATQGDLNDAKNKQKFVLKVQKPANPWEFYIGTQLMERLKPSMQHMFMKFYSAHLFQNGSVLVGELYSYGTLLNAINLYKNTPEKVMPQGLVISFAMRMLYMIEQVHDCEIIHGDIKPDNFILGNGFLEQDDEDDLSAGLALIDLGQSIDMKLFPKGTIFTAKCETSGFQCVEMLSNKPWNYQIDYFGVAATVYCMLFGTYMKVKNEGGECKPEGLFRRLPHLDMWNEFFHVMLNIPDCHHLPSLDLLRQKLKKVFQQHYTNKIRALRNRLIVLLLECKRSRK
- PROTOCOL_DETAILS: Bub1 high ATP kinase assay (TR-FRET)
- Format: biochemical
- RECORDED_CONDITIONS: Bub1 high ATP (2 mM) IC50, TR-FRET, 2 mM ATP; Table 3
pIC50: −log10 of the molar value.
READOUT_NAME: pIC50

Field: example entries. Status: answers known.
molecule="COc1c(Cl)cccc1Nc1c(-c2ccncc2OCC2(C)CCO2)[nH]c2c1C(=O)NCC2CCO (single isomer, unassigned) [Example 22]" reported=4.94
molecule="COCC(C)Oc1cnccc1-c1[nH]c2c(c1Nc1cccc(Cl)c1OC)C(=O)N[C@H](C)C2 (mixture of isomers) [Example 41]" reported=4.77

(I) COc1c(Cl)cccc1Nc1c(-c2ccncc2OCC2OCCC2(F)F)[nH]c2c1C(=O)N[C@H](C)C2 (single isomer, unassigned) [Example 72]
(II) COc1c(Cl)cccc1Nc1c(-c2ccncc2OC[C@@H]2COCCN2C)[nH]c2c1C(=O)NCC2CCO (single isomer, unassigned) [Example 116]
(III) COc1c(Cl)cccc1Nc1c(-c2ccncc2OC[C@@H]2CCCO2)[nH]c2c1C(=O)NC1CCCC21 (stereo in doubt)
Query string: Hey, quick one: sort these by pIC50, low to high? Response format: the labels, sorted as the prompt asks.
Result string: II, I, III

----------
- SYSTEM_TESTED: Ba/F3-EGFR-D770_N771insSVD cells (Homo sapiens, UniProt P00533, DUP768-770, cells depend on it)
- Sequence (P00533 with tags, fused parts or gaps DUP768-770): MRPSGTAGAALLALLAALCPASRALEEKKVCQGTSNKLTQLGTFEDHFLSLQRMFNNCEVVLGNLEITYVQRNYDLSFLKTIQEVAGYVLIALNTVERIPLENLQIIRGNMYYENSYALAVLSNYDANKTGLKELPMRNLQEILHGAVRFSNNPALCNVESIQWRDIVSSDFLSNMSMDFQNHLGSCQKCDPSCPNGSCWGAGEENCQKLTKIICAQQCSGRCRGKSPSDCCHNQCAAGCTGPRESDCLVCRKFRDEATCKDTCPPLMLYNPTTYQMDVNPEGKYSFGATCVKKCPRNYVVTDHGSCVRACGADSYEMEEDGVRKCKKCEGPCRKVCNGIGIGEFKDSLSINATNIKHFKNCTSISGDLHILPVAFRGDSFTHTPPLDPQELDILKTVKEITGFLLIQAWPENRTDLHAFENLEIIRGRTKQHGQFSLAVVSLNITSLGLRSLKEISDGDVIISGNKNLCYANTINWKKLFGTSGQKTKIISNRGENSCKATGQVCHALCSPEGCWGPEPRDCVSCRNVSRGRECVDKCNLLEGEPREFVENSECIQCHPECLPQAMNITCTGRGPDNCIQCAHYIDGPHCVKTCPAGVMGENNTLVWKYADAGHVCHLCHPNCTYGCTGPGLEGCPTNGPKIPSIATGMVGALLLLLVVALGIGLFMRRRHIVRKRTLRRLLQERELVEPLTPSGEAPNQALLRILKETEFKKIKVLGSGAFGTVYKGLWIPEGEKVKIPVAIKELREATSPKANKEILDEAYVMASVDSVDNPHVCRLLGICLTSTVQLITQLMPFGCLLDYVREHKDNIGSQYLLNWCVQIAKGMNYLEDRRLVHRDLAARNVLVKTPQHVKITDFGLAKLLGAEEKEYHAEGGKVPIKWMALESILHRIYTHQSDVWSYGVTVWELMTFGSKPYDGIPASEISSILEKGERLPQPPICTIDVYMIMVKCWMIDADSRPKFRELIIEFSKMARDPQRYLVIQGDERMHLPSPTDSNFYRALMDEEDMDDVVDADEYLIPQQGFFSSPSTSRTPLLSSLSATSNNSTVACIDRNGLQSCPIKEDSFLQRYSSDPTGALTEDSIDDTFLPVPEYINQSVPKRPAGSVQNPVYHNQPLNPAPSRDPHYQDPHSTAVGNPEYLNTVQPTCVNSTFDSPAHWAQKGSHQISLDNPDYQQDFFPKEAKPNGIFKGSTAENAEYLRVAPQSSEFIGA
- PROTOCOL_DETAILS: Ba/F3 cell survival assay, EGFR D770_N771insSVD
- Format: cell-based
- RECORDED_CONDITIONS: Cell Titer-Glo, 48 h, without IL-3; Table 4; read-out: BA/F3 (insSVD) IC50
READOUT_NAME: GI50 (nM)
Only the number, expressed in nM, is required.

Field: example entries. Status: answers known.
molecule="COc1c(Cl)cccc1Nc1c(-c2ccncc2OCC2COC(C)(C)CO2)[nH]c2c1C(=O)NC1(CCC1)C2 (single isomer, unassigned) [Example 131]" reported=48.4
molecule="COc1c(Cl)cccc1Nc1c(-c2ccncc2OC[C@@H]2CCCO2)[nH]c2c1C(=O)NC(C(F)(F)F)C2 (single isomer, unassigned) [Example 40]" reported=64.3
molecule="COc1c(Cl)cccc1Nc1c(-c2ccncc2OCC(C)OC)[nH]c2c1C(=O)N[C@H](C)C2 (mixture of isomers) [Example 80]" reported=19.9

Query string: Given COc1c(Cl)cccc1Nc1c(-c2ccncc2OC[C@@H]2CCCO2)[nH]c2c1C(=O)NC(C(F)(F)F)C2 (mixture of isomers) [Example 38] , state its recorded GI50.
Result string: 138

Query string: Record: COc1c(Cl)cccc1Nc1c(-c2ccncc2OCC2COC(C)(C)CO2)[nH]c2c1C(=O)N[C@H](C)C2 (single isomer, unassigned) [Example 79]
Result string: 151

Query string: Record: COc1c(Cl)cccc1Nc1c(-c2ccncc2OCC2CCCCN2C)[nH]c2c1C(=O)N[C@H](C)C2 (single isomer, unassigned) [Example 84]
Result string: 16.1

Query string: Record: COc1c(Cl)cccc1Nc1c(-c2ccncc2OCC(C)OC)[nH]c2c1C(=O)N[C@H](C)C2 (single isomer, unassigned) [Example 81]
Result string: 44

----------
- SYSTEM_TESTED: EGFR with insertion SVD between D770 and N771 (mutEGFR D770_N771insSVD) (Homo sapiens, UniProt P00533, DUP768-770)
- Construct: amino acids R669 to A1210; made in house; host or cells: Sf9 insect cells (baculovirus)
- Sequence (P00533 other isoform, or with tags, fused parts or gaps DUP768-770): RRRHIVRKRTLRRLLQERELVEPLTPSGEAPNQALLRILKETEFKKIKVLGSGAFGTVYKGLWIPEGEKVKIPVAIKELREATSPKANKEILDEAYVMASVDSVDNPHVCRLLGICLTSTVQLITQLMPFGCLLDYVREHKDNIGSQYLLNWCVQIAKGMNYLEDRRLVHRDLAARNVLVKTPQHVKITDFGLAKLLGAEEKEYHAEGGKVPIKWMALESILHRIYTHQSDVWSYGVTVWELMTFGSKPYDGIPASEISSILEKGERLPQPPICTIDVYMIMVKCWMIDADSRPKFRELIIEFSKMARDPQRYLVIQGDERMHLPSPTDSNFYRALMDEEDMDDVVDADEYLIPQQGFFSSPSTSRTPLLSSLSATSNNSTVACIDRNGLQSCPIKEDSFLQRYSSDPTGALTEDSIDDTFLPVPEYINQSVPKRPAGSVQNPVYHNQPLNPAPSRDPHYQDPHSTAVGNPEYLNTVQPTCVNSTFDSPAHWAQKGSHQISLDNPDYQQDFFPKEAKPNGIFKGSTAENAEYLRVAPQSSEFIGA
- PROTOCOL_DETAILS: Exon20-Mutant-EGFR(D770_N771insSVD) kinase assay (TR-FRET)
- Format: biochemical
- RECORDED_CONDITIONS: 2 mM ATP, Table 2
READOUT_NAME: mutEGFR (D770_N771insSVD) kinase assay IC50 (nM)

compound="COc1c(Cl)cccc1Nc1c(-c2ccncc2OCC2OCCC2(F)F)[nH]c2c1C(=O)N[C@H](C)C2 (single isomer, unassigned) [Example 73]" reported=0.179
compound="COc1c(Cl)cccc1Nc1c(-c2ccncc2OCC2CCCCO2)[nH]c2c1C(=O)NCC2C (single isomer, unassigned) [Example 48]" reported=0.227
compound="COc1c(Cl)cccc1Nc1c(-c2ccncc2OC[C@@H]2COCCN2C)[nH]c2c1C(=O)NCC2CCF (single isomer, unassigned) [Example 90]" reported=0.499

(1) Cc1c(Cl)cccc1Nc1c(-c2ccncc2OCC2COCCO2)[nH]c2c1C(=O)NCC2C (single isomer, unassigned) [Example 70]
(2) COc1c(Cl)cccc1Nc1c(-c2ccncc2OCC2(C)CCO2)[nH]c2c1C(=O)NCC2CCO (single isomer, unassigned) [Example 22]
Query string: Which of the two gives a bigger number for mutEGFR (D770_N771insSVD) kinase assay IC50: 1 or 2 ? # answer = label of selected item
Result string: 2
(2: 0.66 nM, 1: 0.255 nM)

(a) COc1c(Cl)cccc1Nc1c(-c2ccncc2OCC2COCCO2)[nH]c2c1C(=O)NCC2C (single isomer, unassigned) [Example 35]
(b) COc1c(Cl)cccc1Nc1c(-c2ccncc2OC[C@@H]2CCCO2)[nH]c2c1C(=O)NCC2CCC(F)(F)F (single isomer, unassigned) [Example 99]
Query string: Which of the two gives a bigger number for mutEGFR (D770_N771insSVD) kinase assay IC50: a or b ? # answer = label of selected item
Result string: b

----------
Entries annotated with measured GI50
- SYSTEM_TESTED: Ba/F3-EGFR-L858R C797S cells (Homo sapiens, UniProt P00533, C797S/L858R, cells depend on it)
- Sequence (P00533 whole entry C797S/L858R): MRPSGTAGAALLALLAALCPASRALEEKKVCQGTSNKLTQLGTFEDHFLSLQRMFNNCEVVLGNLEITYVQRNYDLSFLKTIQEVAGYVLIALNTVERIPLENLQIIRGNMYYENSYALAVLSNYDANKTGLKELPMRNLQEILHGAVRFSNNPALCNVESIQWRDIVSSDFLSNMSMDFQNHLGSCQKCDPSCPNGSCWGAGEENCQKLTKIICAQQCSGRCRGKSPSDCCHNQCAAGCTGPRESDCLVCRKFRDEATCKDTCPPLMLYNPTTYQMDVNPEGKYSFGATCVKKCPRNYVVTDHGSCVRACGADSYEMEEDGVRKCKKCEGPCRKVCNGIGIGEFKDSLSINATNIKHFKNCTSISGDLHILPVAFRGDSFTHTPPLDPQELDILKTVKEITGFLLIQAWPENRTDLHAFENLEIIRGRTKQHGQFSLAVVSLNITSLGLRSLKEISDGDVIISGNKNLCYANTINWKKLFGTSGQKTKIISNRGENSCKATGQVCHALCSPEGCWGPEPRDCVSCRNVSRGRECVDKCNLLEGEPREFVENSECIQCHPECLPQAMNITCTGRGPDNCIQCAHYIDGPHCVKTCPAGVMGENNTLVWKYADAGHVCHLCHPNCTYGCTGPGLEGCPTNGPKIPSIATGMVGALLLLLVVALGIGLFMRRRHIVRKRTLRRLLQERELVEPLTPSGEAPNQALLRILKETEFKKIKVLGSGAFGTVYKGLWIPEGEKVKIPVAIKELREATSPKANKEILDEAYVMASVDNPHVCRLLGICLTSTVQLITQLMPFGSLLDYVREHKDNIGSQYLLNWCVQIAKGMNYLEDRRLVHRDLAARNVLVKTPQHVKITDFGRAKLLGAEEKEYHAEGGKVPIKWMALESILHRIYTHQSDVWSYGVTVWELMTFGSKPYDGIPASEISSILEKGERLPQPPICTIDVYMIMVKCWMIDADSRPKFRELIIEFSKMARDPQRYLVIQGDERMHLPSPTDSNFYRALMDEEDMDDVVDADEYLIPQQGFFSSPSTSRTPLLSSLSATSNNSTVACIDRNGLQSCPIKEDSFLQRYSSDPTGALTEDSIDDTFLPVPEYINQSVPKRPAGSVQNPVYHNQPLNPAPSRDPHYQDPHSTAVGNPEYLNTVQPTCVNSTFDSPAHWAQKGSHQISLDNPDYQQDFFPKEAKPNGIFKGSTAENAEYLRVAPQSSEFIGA
- PROTOCOL_DETAILS: Ba/F3 cell survival assay, EGFR L858R C797S
- Type: cell-based
- RECORDED_CONDITIONS: aquired resistance space; Table 8; read-out: BA/F3 (EGFR L858R C797S) IC50
Only the number, expressed in nM, is required.

Field: example entries. Status: answers known.
molecule="COc1c(Cl)cccc1Nc1c(-c2ccncc2OCC2COCCO2)[nH]c2c1C(=O)NCC2C (single isomer, unassigned) [Example 34]" reported=3.07
molecule="COc1c(Cl)cccc1Nc1c(-c2ccncc2OCCC2CCCCO2)[nH]c2c1C(=O)N[C@H](C)C2 (single isomer, unassigned) [Example 87]" reported=1.38
molecule="COc1c(Cl)cccc1Nc1c(-c2ccncc2OCCC(C)OC)[nH]c2c1C(=O)N[C@H](C)C2 (single isomer, unassigned) [Example 121]" reported=1.07
molecule="COCC(C)Oc1cnccc1-c1[nH]c2c(c1Nc1cccc(Cl)c1OC)C(=O)N[C@@H]1CCC[C@H]21 (single isomer, unassigned) [Example 51]" reported=1.32
molecule="COc1c(Cl)cccc1Nc1c(-c2ccncc2OC[C@@H]2CCCO2)[nH]c2c1C(=O)NC1(CC1)C2 [Example 113]" reported=5.07

Query string: Given Cc1c(Cl)cccc1Nc1c(-c2ccncc2OCC2COCCO2)[nH]c2c1C(=O)NCC2C (single isomer, unassigned) [Example 67] , state its recorded GI50.
Result string: 2.49

----------
- SYSTEM_TESTED: Ba/F3-EGFR-WT cells (Homo sapiens, UniProt P00533)
- Sequence (P00533 whole entry, looked up, change not shown): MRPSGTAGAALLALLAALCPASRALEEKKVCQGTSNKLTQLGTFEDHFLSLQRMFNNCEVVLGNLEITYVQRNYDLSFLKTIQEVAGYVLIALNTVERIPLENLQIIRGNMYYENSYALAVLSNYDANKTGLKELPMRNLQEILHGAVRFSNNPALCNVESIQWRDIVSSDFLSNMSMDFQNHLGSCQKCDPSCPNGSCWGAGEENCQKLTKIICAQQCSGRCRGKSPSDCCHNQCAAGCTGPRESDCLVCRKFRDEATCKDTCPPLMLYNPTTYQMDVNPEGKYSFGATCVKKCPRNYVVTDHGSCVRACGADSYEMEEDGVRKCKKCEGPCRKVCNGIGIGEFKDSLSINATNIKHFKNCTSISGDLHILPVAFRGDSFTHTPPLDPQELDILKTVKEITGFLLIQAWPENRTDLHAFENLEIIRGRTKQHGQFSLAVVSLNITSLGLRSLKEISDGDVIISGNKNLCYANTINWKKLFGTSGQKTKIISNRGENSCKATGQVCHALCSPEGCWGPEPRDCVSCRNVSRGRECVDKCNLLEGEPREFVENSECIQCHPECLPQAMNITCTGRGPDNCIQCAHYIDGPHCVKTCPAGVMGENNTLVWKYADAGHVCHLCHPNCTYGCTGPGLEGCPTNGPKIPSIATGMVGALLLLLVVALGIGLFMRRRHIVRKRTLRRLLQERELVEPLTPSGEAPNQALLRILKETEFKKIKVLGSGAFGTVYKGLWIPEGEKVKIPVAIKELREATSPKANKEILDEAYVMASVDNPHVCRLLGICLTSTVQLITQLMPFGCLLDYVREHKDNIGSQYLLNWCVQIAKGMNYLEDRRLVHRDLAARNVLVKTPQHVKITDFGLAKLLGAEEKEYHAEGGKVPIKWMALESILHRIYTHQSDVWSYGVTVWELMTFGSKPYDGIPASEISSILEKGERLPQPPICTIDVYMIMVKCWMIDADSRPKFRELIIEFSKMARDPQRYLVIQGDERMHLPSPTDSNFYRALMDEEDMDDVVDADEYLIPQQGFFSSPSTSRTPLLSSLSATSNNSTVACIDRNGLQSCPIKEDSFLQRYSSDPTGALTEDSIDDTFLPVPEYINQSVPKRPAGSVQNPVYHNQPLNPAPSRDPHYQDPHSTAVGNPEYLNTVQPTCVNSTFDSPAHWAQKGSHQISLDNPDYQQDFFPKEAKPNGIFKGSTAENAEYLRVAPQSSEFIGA
- PROTOCOL_DETAILS: Ba/F3 cell survival assay, wild type EGFR
- Type: cell-based
- RECORDED_CONDITIONS: Cell Titer-Glo, 48 h, with 10 ng/mL EGF; Table 4; read-out: BA/F3 (wild type) IC50
READOUT_NAME: GI50 (nM)
Only the number, expressed in nM, is required.

compound="COc1c(Cl)cccc1Nc1c(-c2ccncc2OCCC(C)OC)[nH]c2c1C(=O)N[C@H](C)C2 (mixture of isomers) [Example 120]" readout_name=GI50 reported=358

Query string: Given COc1c(Cl)cccc1Nc1c(-c2ccncc2OC[C@@H]2CCCO2)[nH]c2c1C(=O)NCC2C (mixture of isomers) [Example 30] , state its recorded GI50.
Result string: 606

Query string: Record: COc1c(Cl)cccc1Nc1c(-c2ccncc2OCC2COCCO2)[nH]c2c1C(=O)NCC2C (stereo not shown) [Example 33]
Result string: 844

Query string: Record: COc1c(Cl)cccc1Nc1c(-c2ccncc2OCC(C)OC)[nH]c2c1C(=O)N[C@H](C)C2 (single isomer, unassigned) [Example 82]
Result string: 248

Query string: Record: COc1c(Cl)cccc1Nc1c(-c2ccncc2OCC2COCCO2)[nH]c2c1C(=O)N[C@H](C)C2 (single isomer, unassigned) [Example 25]
Result string: 358

Query string: Record: COc1c(Cl)cccc1Nc1c(-c2ccncc2OCC2CCCCN2C)[nH]c2c1C(=O)N[C@H](C)C2 (mixture of isomers) [Example 83]
Result string: 669

Query string: Record: COc1c(Cl)cccc1Nc1c(-c2ccncc2OCC(C)(C)OC)[nH]c2c1C(=O)NCC2CCO (stereo not shown) [Example 13]
Result string: 339
